meta.source: patent US11135237B2

# System: Staphylococcus aureus CCM 4223
# experiment summary: MIC, microdilution method, reference strains
# Assay type: cell-based
# condition set: CCM4223, read after 24/48 hours of incubation at 37° C.
What MIC was measured for each of the following?
Unit µg/mL implied. Number only.

## Task For the compound CCCCCCCCCCCCCCCCOP(=O)(CCN(CCCN)CCCN)OC[C@H]1O[C@@H](n2ccc(=O)[nH]c2=O)C(O)C1O (stereo partly drawn) , report MIC.
## Result 12.5

## Task For the compound CCCCCCCCCCCCCCCOP(=O)(CCN(CCCN)CCCN)OC[C@H]1O[C@@H](n2ccc(=O)[nH]c2=O)C(O)C1O (stereo partly drawn) , report MIC.
## Result 6.25

## Task For the compound CCCCCCCCCCCCCCOP(=O)(CCN1CCC(N)C1)OC[C@H]1O[C@@H](n2ccc(=O)[nH]c2=O)C(O)C1O (stereo partly drawn) , report MIC.
## Result 12.5

## Task For the compound CCCCCCCCCCCCCCOP(=O)(CCN(CCCN)CCCN)OC[C@H]1O[C@@H](n2ccc(=O)[nH]c2=O)C(O)C1O (stereo partly drawn) , report MIC.
## Result 6.25

## Task For the compound CCCCCCCCCCCCCCOP(=O)(CCN(CCCNC(=N)N)CCCNC(=N)N)OC[C@H]1O[C@@H](n2ccc(=O)[nH]c2=O)C(O)C1O (stereo partly drawn) , report MIC.
## Result 6.25

## Task For the compound CCCCCCCCCCCCCCCOP(=O)(CCN(CCN)CCN)OC[C@H]1O[C@@H](n2ccc(=O)[nH]c2=O)C(O)C1O (stereo partly drawn) , report MIC.
## Result 6.25

====

# Test system: Streptococcus agalactiae
# experiment summary: MIC, microdilution method, reference strains
# Type: cell-based
# condition set: read after 24/48 hours of incubation at 37° C.
What MIC was measured for each of the following?
Unit µg/mL implied. Number only.

## Task For the compound CCCCCCCCCCCCCCOP(=O)(CCN(CCCN)CCCN)OC[C@H]1O[C@@H](n2ccc(=O)[nH]c2=O)C(O)C1O (some centres unmarked) , report MIC.
## Result 3.12

## Task For the compound CCCCCCCCCCCCCCOP(=O)(CCN(CCCNC(=N)N)CCCNC(=N)N)OC[C@H]1O[C@@H](n2ccc(=O)[nH]c2=O)C(O)C1O (some centres unmarked) , report MIC.
## Result 3.12

## Task For the compound CCCCCCCCCCCCCCOP(=O)(CCN1CCC(N)C1)OC[C@H]1O[C@@H](n2ccc(=O)[nH]c2=O)C(O)C1O (some centres unmarked) , report MIC.
## Result 3.12

## Task For the compound CCCCCCCCCCCCCCCCOP(=O)(CCN(CCCN)CCCN)OC[C@H]1O[C@@H](n2ccc(=O)[nH]c2=O)C(O)C1O (some centres unmarked) , report MIC.
## Result 3.12

## Task For the compound CCCCCCCCCCCCCOP(=O)(CCN(CCCN)CCCN)OC[C@H]1O[C@@H](n2ccc(=O)[nH]c2=O)C(O)C1O (some centres unmarked) , report MIC.
## Result 6.25
